# TEST: Half life in dog at 10 mg/kg, po or 2 mg/kg, iv
# Type: ADME, organism-based, Canis lupus familiaris
# CONDITION_NOTES: in vivo
Please provide measured half-life for the entries that follow.

Hi, could you look up half-life for each item in my list?
1. Cc1nc(-c2ccccc2C(=O)N2C[C@H](Oc3cc(C#N)ccn3)CC[C@H]2C)no1
2. C[C@@H]1CC[C@@H](Oc2cc(C#N)ccn2)CN1C(=O)c1ccccc1-n1nccn1
3. C[C@@H]1CC[C@@H](Oc2cc(C#N)ccn2)CN1C(=O)c1ccccc1-c1ncccn1

Key:
1: 1.5 h; 2: 1.1 h; 3: 0.8 h
